- protocol.description: Binding affinity to Bovicola ovis recombinant ecdysone receptor ligand binding domain after 3 hrs by fluorescence polarization assay
outcome.measure: IC50 (µM)
Answers are plain numbers, in µM.

Take a look at these entries with their results.
> print(dat)
                                    compound  outcome.measure  observed.value
 1  C=C1C(C)=C(C#N)C(=O)N1c1cc(Cl)c(C(C)(C)C)cc1Cl             IC50            11.3
 2      C=C1C(CC(C)C)=C(C#N)C(=O)N1c1ccccc1C             IC50              11
 3  C=C1C(C)=C(C(=O)Nc2cccc(Cl)c2)C(=O)N1c1cccc(Cl)c1             IC50            12.5
 4   C=C1C(C)=C(C#N)C(=O)N1c1ccccc1Oc1ccccc1             IC50              25
 5    C=C1C(CCCC)=C(C#N)C(=O)N1c1cc(Cl)ccc1C             IC50               6
 6   C=C1C(C)=C(C#N)C(=O)N1c1ccccc1Cc1ccccc1             IC50            22.5
 7  C=C1C(CC(C)C)=C(C#N)C(=O)N1c1cc(C(F)(F)F)cc(C(F)(F)F)c1             IC50             6.3
 8  C=C1C(CC(C)C)=C(C#N)C(=O)N1c1c(Cl)c(Cl)cc(Cl)c1Cl             IC50              45
 9        C=C1C(C)=C(C#N)C(=O)N1c1ccc(Cl)cn1             IC50              95
10  C=C1C(C)=C(C(=O)c2ccccc2)C(=O)N1c1cc(Cl)c(Cl)cc1Cl             IC50               9

Report IC50 for each item below.
1. CC(C)CC[C@@H](O)[C@](C)(O)[C@H]1CC[C@@]2(O)C3=CC(=O)[C@@H]4C[C@@H](O)[C@@H](O)C[C@]4(C)[C@H]3CC[C@]12C [PONASTERONE A]
2. C=C1C(CCCC)=C(C#N)C(=O)N1c1c(C)cc(Cl)cc1C(C)C

1: 1.1; 2: 17.5

Report IC50 for each item below.
1. CCC/C=C1\C(C)=C(C#N)C(=O)N1c1c(C(C)(C)C)ccc(Cl)c1C
2. C=C1C(C)=C(C#N)C(=O)N1c1ccc(OC)cc1OC
3. C=C1C(C)=C(C#N)C(=O)N1C1CCCCC1
4. C=C1C(CC)=C(C#N)C(=O)N1c1cc(Cl)ccc1C(C)(C)C
5. C=C1C(C(C)C)=C(C#N)C(=O)N1c1c(C)cccc1C(C)C
6. C=C1C(C)=C(C#N)C(=O)N1c1ccc(-c2ccccc2)cc1
7. C=C1C(CCC)=C(C#N)C(=O)N1c1c(C)cccc1C(C)C
8. C=C1C(C)=C(C#N)C(=O)N1c1cc(Cl)ccc1OC(=O)CC

2300
150
50
15
27.5
35
10.5
55

Report IC50 for each item below.
1. C=C1C(CC)=C(C#N)C(=O)N1c1cccc(Cl)c1Cl
2. C=C1C(C)=C(C#N)C(=O)N1c1cccc(SC)c1

17.5
25

====

Exercise: for every item that follows, state its recorded pIC50.
- protocol.description: Binding affinity to Bovicola ovis recombinant ecdysone receptor ligand binding domain after 3 hrs by fluorescence polarization assay
One number for each entry, as −log10 of the molar value.

Take a look at these entries with their results.
> print(dat)
                              sample.smiles  outcome.measure  observed.value
1  C=C1C(C)=C(C(=O)OCC)C(=O)N1c1cc(Cl)c(Cl)cc1Cl            pIC50            4.96
2  C=C1C(C)=C(C#N)C(=O)N1c1c(C)cc(Cl)cc1C(C)C            pIC50            4.70

Report pIC50 for each item below.
1. C=C1C(C)=C(C#N)C(=O)N1c1ccccc1C(C)(C)C
2. C=C1C(CCCC)=C(C#N)C(=O)N1c1c(C)cccc1CC

[4.76, 4.34]

Report pIC50 for each item below.
1. C=C1C(C)=C(C#N)C(=O)N1c1cccc(Oc2ccccc2)c1
2. C=C1C(C(C)C)=C(C#N)C(=O)N1c1c(C)cc(Cl)cc1C
3. C=C1C(C)=C(C#N)C(=O)N1c1ccc(F)cc1F
4. C=C1C(CCC)=C(C#N)C(=O)N1c1c(C)cccc1CC
5. C=C1C(C)=C(C#N)C(=O)N1c1c(C)cccc1[N+](=O)[O-]
6. C=C1C(C)=C(C#N)C(=O)N1c1ccccc1Br
7. C=C1C(C)=C(C(=O)c2ccccc2)C(=O)N1c1c(C)cc(C)cc1C

[4.74, 4.96, 4.05, 4.32, 3.80, 4.43, 4.36]

====

Exercise: for every item that follows, state its recorded pIC50.
- protocol.description: Binding affinity to Bovicola ovis recombinant ecdysone receptor ligand binding domain after 3 hrs by fluorescence polarization assay
Numbers only, as −log10 of the molar value.

> print(dat)
                                   compound  observed.value
1  C=C1C(c2ccccc2)=C(C#N)C(=O)N1c1cc(Cl)ccc1Cl            5.07
2  C=C1C(C)=C(C#N)C(=O)N1c1cc(C(F)(F)F)ccc1C(F)(F)F            5.35

Report pIC50 for each item below.
1. C=C1C(C)=C(C#N)C(=O)N1c1ccccc1OC
2. C=C1C(CCCC)=C(C#N)C(=O)N1c1c(C)cccc1C

[4.96, 4.46]

====

- assayed.system: Ecdysone receptor (Lucilia cuprina)
- Sequence (O18531 whole entry, the tested form may be a part): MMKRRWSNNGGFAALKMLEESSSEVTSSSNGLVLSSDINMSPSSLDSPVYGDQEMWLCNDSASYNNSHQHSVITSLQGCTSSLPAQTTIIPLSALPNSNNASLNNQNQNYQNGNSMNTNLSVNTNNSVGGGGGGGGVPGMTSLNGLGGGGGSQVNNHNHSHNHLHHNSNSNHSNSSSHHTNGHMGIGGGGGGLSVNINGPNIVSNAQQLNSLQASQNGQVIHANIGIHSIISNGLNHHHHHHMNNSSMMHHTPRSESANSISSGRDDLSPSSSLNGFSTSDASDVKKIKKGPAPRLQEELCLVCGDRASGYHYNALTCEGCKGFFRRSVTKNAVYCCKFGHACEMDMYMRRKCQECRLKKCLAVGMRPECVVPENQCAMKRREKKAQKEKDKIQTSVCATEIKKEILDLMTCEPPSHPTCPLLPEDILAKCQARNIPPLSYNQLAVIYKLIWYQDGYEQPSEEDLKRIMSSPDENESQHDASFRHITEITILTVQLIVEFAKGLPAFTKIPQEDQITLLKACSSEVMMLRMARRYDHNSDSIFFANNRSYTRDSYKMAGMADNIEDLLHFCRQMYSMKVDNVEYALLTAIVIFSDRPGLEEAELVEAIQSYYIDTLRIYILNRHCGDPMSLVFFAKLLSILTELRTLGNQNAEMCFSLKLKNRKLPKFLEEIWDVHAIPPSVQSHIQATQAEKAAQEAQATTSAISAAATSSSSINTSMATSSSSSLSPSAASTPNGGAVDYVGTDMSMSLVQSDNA
- protocol.description: Binding affinity to Lucilia cuprina recombinant ecdysone receptor ligand binding domain after 3 hrs by fluorescence polarization assay
outcome.measure: pIC50
One number for each entry, as −log10 of the molar value.

> print(dat)
                              sample.smiles                       assayed.system  outcome.measure  observed.value
1  C=C1C(CC(C)C)=C(C#N)C(=O)N1c1cc(Cl)c(Cl)cc1Cl  Ecdysone receptor (Lucilia cuprina)            pIC50            5.26
2    C=C1C(CCCC)=C(C#N)C(=O)N1c1cccc(Cl)c1C  Ecdysone receptor (Lucilia cuprina)            pIC50            5.08
3    C=C1C(CCCC)=C(C#N)C(=O)N1c1c(C)cccc1Cl  Ecdysone receptor (Lucilia cuprina)            pIC50            4.25
4  C=C1C(C)=C(C#N)C(=O)N1c1c(C(C)C)cccc1C(C)C  Ecdysone receptor (Lucilia cuprina)            pIC50            4.63
5  C=C1C(c2ccccc2)=C(C#N)C(=O)N1c1c(C)cccc1C(C)C  Ecdysone receptor (Lucilia cuprina)            pIC50            4.26

Attention now turns to another entry.
Hey, Ecdysone receptor (Lucilia cuprina) data for "C=C1C(C(C)C)=C(C#N)C(=O)N1c1c(C)cccc1C(C)C" : pIC50 came out at 4.33

====

Exercise: for every item that follows, state its recorded pIC50.
- protocol.description: Binding affinity to Bovicola ovis recombinant ecdysone receptor ligand binding domain after 3 hrs by fluorescence polarization assay
Give bare numbers, as −log10 of the molar value.

Take a look at these entries with their results.
> print(dat)
                                   compound  observed.value
1  C=C1C(C)=C(C#N)C(=O)N1c1ccc(Cl)c(Cl)c1Cl            4.82
2    C=C1C(C)=C(C#N)C(=O)N1c1ccccc1C(F)(F)F            4.56

Report pIC50 for each item below.
1. C=C1C(C)=C(C#N)C(=O)N1C1CCCC1
2. C=C1C(C)=C(C#N)C(=O)N1c1cc(Cl)c(Cl)cc1Cl

[4.07, 5.15]

Report pIC50 for each item below.
1. C=C1C(C)=C(C#N)C(=O)N1c1c(C)cc(Cl)cc1C
2. C=C1C(C)=C(C(=O)c2ccccc2)C(=O)N1c1c(C)cccc1C(C)C
3. C=C1C(CC)=C(C#N)C(=O)N1c1ccccc1OC(F)(F)F
4. C=C1C(C(C)C)=C(C#N)C(=O)N1c1ccc(Cl)cc1C(C)(C)C

4.32
4.24
4.59
5.19

Report pIC50 for each item below.
1. C=C1C(CC)=C(C#N)C(=O)N1c1ccccc1C(C)(C)C
2. C=C1C(C)=C(C#N)C(=O)N1C1CC2CCC1C2 (stereo not drawn)
3. C=C1C(C)=C(C#N)C(=O)N1c1cccc(Cl)c1Cl
4. C=C1C(c2ccccc2)=C(C#N)C(=O)N1c1c(C)cccc1C(C)C
5. C=C1C(C)=C(C#N)C(=O)N1c1ccccc1Cl
6. CN(C(=O)C1CCCCC1)N1C(=O)C(C#N)=C2CCCC=C21
7. C=C1C(C)=C(C(=O)c2ccccc2)C(=O)N1c1cccc(C(F)(F)F)c1
8. C=C1C(CC)=C(C#N)C(=O)N1c1c(Cl)cc(Cl)cc1Cl

4.40
4.32
4.65
4.37
4.26
4.06
4.90
3.80

Report pIC50 for each item below.
1. C=C1C(C)=C(C#N)C(=O)N1c1ccc(N(C)C(C)=O)cc1
2. C=C1C(C)=C(C#N)C(=O)N1c1c(C)cc(C)cc1C
3. C=C1C(C)=C(C#N)C(=O)N1c1ccccc1C(C)C
4. C=C1C(C)=C(C#N)C(=O)N1c1ccccc1-c1ccccc1
5. C=C1C(CCCC)=C(C#N)C(=O)N1c1c(C)cccc1Cl
6. C=C1C(CC)=C(C#N)C(=O)N1c1cc(Cl)c(Cl)cc1Cl

3.40
4.17
4.65
4.60
5.22
5.26

Looking up "C=C1C(CCCC)=C(C#N)C(=O)N1c1c(C)cccc1C(C)C" , I see its pIC50 listed as 4.69
